# tested-on: NF-kB p65 (RelA) (UniProt Q04206 Q04206:1-551)
# Sequence (Q04206 whole entry, one chain of several): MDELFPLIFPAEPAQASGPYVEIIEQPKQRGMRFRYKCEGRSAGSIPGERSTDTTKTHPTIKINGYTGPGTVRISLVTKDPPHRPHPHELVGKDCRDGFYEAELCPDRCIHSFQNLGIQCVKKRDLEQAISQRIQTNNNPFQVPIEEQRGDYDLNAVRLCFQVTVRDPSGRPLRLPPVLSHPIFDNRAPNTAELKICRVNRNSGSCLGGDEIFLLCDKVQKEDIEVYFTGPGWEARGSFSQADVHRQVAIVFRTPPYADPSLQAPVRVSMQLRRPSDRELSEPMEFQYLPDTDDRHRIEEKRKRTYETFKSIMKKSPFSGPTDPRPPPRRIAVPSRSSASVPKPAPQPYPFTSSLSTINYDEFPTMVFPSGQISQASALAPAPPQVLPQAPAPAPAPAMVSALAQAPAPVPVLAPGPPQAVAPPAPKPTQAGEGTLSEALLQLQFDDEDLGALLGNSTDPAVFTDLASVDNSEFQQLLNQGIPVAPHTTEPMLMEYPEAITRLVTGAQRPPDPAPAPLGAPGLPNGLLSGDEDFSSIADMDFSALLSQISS
# protocol-summary: competition
# run-conditions: protein: extract; tags: TPA and CI-stimulated Jurkat nuclear extract, Active Motif TransAM kit
pIC50: −log10 of the molar value.
measured-quantity: pIC50

* PSODN9 (dsDNA, PS only within consensus gggatttccc, both strands) DNA 1: GGAGGGATTTCCCGGG DNA 2: CCCGGGAAATCCCTCC | 9.27
* PSODN8 (dsDNA, PS only within consensus gggatttccc, both strands) DNA 1: CCCGGGATTTCCCACC DNA 2: GGTGGGAAATCCCGGG | 9.20
* PSODN7 (dsDNA, PS only within consensus gggatttccc, both strands) DNA 1: CGCGGGATTTCCCAGC DNA 2: GCTGGGAAATCCCGCG | 9.27
* PSODN17 (dsDNA, PS only within consensus gggatttccc, both strands) DNA 1: CCCTGGGATTTCCCGCC DNA 2: GGCGGGAAATCCCAGGG | 9.32
* PSODN16 (dsDNA, PS only within consensus gggatttccc, both strands) DNA 1: CGCAGGGATTTCCCGCG DNA 2: CGCGGGAAATCCCTGCG | 9.39
* PSODN30 (dsDNA, PS only within consensus gggatttccc, both strands) DNA 1: GGCTGGGATTTCCCGCGG DNA 2: CCGCGGGAAATCCCAGCC | 9.32
